Source listed as patent US8921388B2.

For each entry below, report its IC50 value.
- measured-on: influenza A virus (IAV) PA-Nter fragment (amino acids 1-209) harbouring the influenza endonuclease activity (Influenza A virus, UniProt P31343)
Respond numerically; units are nM and should not be typed.

Lookup: Tell me the measured IC50 of `CC(C)NC(=O)c1nc(Cc2ccccc2-c2ccccc2)n(C)c(=O)c1O` , please.
Found: 14000

Lookup: Which value of IC50 has been reported for `COC(=O)c1nc(Cc2ccccc2-c2ccccc2C)nc(O)c1O` in the records?
Found: 120

Lookup: Value lookup for IC50; key = `CNC(=O)c1nc(Cc2ccccc2-c2ccccc2)nc(O)c1O`
Found: 660

Lookup: Name the recorded IC50 for `CNC(=O)c1nc(NS(=O)(=O)Cc2ccc(C)cc2)n(C)c(=O)c1O` .
Found: 13000

Lookup: Can you share its IC50? I mean this compound: `COC(=O)c1nc(Cc2ccc(F)cc2Br)nc(O)c1O`
Found: 1500

Lookup: // IC50 lookup, key: `O=C(NCc1ccccc1)c1nc(CC2(c3ccccc3)CCCC2)nc(O)c1O`
Found: 1100

Lookup: Could you tell me which IC50 is on file for `Cn1c(Cc2ccccc2-c2ccccc2)nc(C(N)=O)c(O)c1=O` ?
Found: 1300

Lookup: Entry under review: `CNC(=O)c1nc(CC2(c3ccccc3)CCCC2)n(C)c(=O)c1O` . Reported IC50?
Found: 410

Lookup: GET /values?readout=IC50&item= `O=C(NCCc1ccccc1)c1nc(Cc2ccccc2-c2ccccc2)nc(O)c1O`
Found: 3800

Lookup: Item under review: `O=C(NCc1ccc(F)cc1)c1nc(Cc2ccccc2Br)nc(O)c1O` . Reported IC50?
Found: 27000

Lookup: IC50 for `Cc1ccccc1-c1ccccc1Cc1nc(O)c(O)c(C(=O)O)n1` ?
Found: 240

Lookup: Which IC50 value belongs to `O=C(O)c1c(O)c(=O)nc(Cc2ccccc2)n1Cc1ccccc1` ?
Found: 3800

Lookup: Give the measured IC50 of `CNC(=O)c1nc(CC2CCCCC2)nc(O)c1O` .
Found: 6500

Lookup: Field request: IC50 | item: `Cc1cccc(-c2ccccc2Cc2nc(O)c(O)c(C(=O)O)n2)c1`
Found: 230

Lookup: State the recorded IC50 for this entry: `Cc1ccc(C)c(-c2ccccc2Cc2nc(O)c(O)c(C(=O)OC(C)(C)C)n2)c1`
Found: 1100

Lookup: // lookup IC50 for `Cc1cccc(-c2ccccc2Cc2nc(C(N)=O)c(O)c(=O)[nH]2)c1`
Found: 550

Lookup: Report IC50 for `Cc1ccccc1Cc1nc(O)c(O)c(C(=O)O)n1` please.
Found: 270

Lookup: For the compound shown here, `Cn1c(NS(=O)(=O)Cc2ccc(Cl)cc2)nc(C(=O)O)c(O)c1=O` , give the reported IC50.
Found: 540

Lookup: Data request, read-out IC50, for `Cn1c(Cc2ccccc2-c2ccccc2)nc(C(=O)O)c(O)c1=O`
Found: 1300

Lookup: What value of IC50 has been reported for the following compound? `CCOC(=O)c1nc(CC2CCCCC2)nc(O)c1O`
Found: 3200

Lookup: // query IC50 value for entry `O=C(O)c1nc(CC(c2ccccc2)c2ccccc2)nc(O)c1O`
Found: 2500

Lookup: What IC50 value was documented for this compound, `O=C(c1nc(Cc2ccccc2-c2ccccc2)nc(O)c1O)N1CCCC1` ?
Found: 1100

Lookup: Please give the measured IC50 for this compound: `COC(=O)c1nc(Cc2ccccc2Br)nc(O)c1OC(C)=O`
Found: 7900

Lookup: I have this compound here, `CCCNC(=O)c1nc(Cc2ccccc2-c2ccccc2)nc(O)c1O` , and I need its recorded IC50.
Found: 8800

Lookup: Which IC50 value is on record for `O=C(NCc1ccc(F)cc1)c1nc(Cc2ccccc2-c2ccccc2)nc(O)c1O` ?
Found: 1700

Lookup: Reported IC50 for `CNC(=O)c1nc(CC2(c3ccccc3)CCCC2)nc(O)c1O` : what is it?
Found: 140

Lookup: // returns reported IC50 for input `CNC(=O)c1nc(Cc2ccccc2-c2ccccc2)n(C)c(=O)c1O`
Found: 23000

Lookup: For the compound shown here, `CNC(=O)c1nc(NS(=O)(=O)Cc2ccccc2)n(C)c(=O)c1O` , give the reported IC50.
Found: 3000

Lookup: // lookup IC50 for `CC(C)NC(=O)c1nc(Cc2ccccc2-c2ccccc2)nc(O)c1O`
Found: 8200

Lookup: Sample `CNC(=O)c1nc(Cc2ccccc2Br)nc(O)c1O` — what was its IC50?
Found: 5700

Lookup: # get_value(readout='IC50', item= `CCOC(=O)c1nc(Cc2cncn2Cc2ccccc2)nc(O)c1O` )
Found: 9500

Lookup: What value of IC50 has been reported for the following compound? `CC(C)NC(=O)c1nc(Cc2cccc(Br)c2)nc(O)c1O`
Found: 23000

Lookup: I am curious: what IC50 value has been reported for `O=C(O)c1nc(Cc2ccccc2-c2ccccc2)nc(O)c1O` ?
Found: 40

Lookup: Which IC50 is listed for `O=C(NCc1ccc(Cl)cc1)c1nc(Cc2ccccc2-c2ccccc2)nc(O)c1O` ?
Found: 1800

Lookup: State the recorded IC50 for this entry: `CNC(=O)c1nc(Cc2ccccc2-c2cc(C)ccc2C)nc(O)c1O`
Found: 530

Lookup: Any idea what its IC50 is? The compound is `NC(=O)c1nc(CC2(c3ccccc3)CCCC2)nc(O)c1O`
Found: 240

Lookup: Could you tell me which IC50 is on file for `O=C(O)c1nc(Cc2cc(C(F)(F)F)ccc2Br)nc(O)c1O` ?
Found: 160

Lookup: Requested read-out: IC50. Entry: `O=C(O)c1nc(CC2(c3ccccc3)CCCC2)nc(O)c1O`
Found: 80

Lookup: I am curious: what IC50 value has been reported for `O=C(O)c1c(O)c(=O)nc(Cc2ccccc2Br)n1Cc1ccccc1` ?
Found: 5700

Lookup: What does the data say about its IC50? Entry: `O=C(O)c1nc(CC2CCCCC2)nc(O)c1O`
Found: 210

Lookup: Data request, read-out IC50, for `Cn1c(CC2(c3ccccc3)CCCC2)nc(C(=O)O)c(O)c1=O`
Found: 260

Lookup: For the compound `O=C(O)c1nc(Cc2ccccc2Br)nc(O)c1O` , what IC50 is on record?
Found: 250

Lookup: Could you tell me which IC50 is on file for `COC(=O)c1c(O)c(=O)nc(Cc2ccccc2)n1Cc1ccccc1` ?
Found: 19000

Lookup: Which IC50 is listed for `Cc1ccc(C)c(-c2ccccc2Cc2nc(O)c(O)c(C(=O)O)n2)c1` ?
Found: 30

Lookup: Any idea what its IC50 is? The compound is `CCOC(=O)c1nc(Cc2ccccc2-c2cc(C)ccc2C)nc(O)c1O`
Found: 220

Lookup: State the recorded IC50 for this entry: `O=C(O)c1nc(Cc2ccc(F)cc2Br)nc(O)c1O`
Found: 180

====

For each of the compounds below, state its log10 IC50.
- measured-on: influenza A virus (IAV) PA-Nter fragment (amino acids 1-209) harbouring the influenza endonuclease activity (Influenza A virus, UniProt P31343)
// stored as log10 of IC50 expressed in nM

Lookup: Given `CNC(=O)c1nc(NS(=O)(=O)Cc2cccc(C)c2)n(C)c(=O)c1O` , state its recorded log10 IC50.
Found: 3.83

Lookup: Sample `COC(=O)c1nc(Cc2ccccc2-c2cc(C)ccc2C)nc(O)c1O` — what was its log10 IC50?
Found: 2.18

Lookup: Name the recorded log10 IC50 for `COC(=O)c1nc(CC2(c3ccccc3)CCCC2)nc(O)c1O` .
Found: 2.61

Lookup: Given the entry `NC(=O)c1nc(Cc2ccc(F)cc2Br)nc(O)c1O` , report its measured log10 IC50.
Found: 3.43

Lookup: May I ask what log10 IC50 has been recorded for `COC(=O)c1nc(Cc2ccccc2-c2cccc(C)c2)nc(O)c1O` ?
Found: 2.54

Lookup: Give the measured log10 IC50 of `O=C(NCc1ccccc1)c1nc(Cc2ccccc2-c2ccccc2)nc(O)c1O` .
Found: 4.20

Lookup: Would you kindly share the measured log10 IC50 for `CNC(=O)c1nc(NS(=O)(=O)Cc2ccc(Cl)cc2)n(C)c(=O)c1O` ?
Found: 3.76
